assayed target: MBP-FoxP3dN (Mus musculus, UniProt Q99JB6 188-423)
Sequence: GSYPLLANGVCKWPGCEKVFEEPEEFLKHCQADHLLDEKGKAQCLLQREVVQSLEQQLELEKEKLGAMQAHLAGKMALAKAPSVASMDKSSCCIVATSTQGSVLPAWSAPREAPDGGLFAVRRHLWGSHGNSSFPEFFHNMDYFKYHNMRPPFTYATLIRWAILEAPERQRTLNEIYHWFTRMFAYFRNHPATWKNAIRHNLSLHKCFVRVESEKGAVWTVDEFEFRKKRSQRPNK
test protocol: PD-seq (MBP pull-down with sequencing); 20 mM Tris-HCl pH 7.5, 100 mM NaCl, 1.5 mM MgCl2, 0.4 uM protein, 0.1 uM dsDNA library, 30 min, room temperature, amylose pull-down; high values mean tight binding
measurement parameters: protein: recombinant; tags: His6-MBP; chain copies: 2; dsDNA, one strand shown
The full ranking holds about 16,000 sequences; the median of “rpm ratio (pull-down/input)” is about 0.5, and the highest 2% start at about 5.5. For the sample, the highest values were picked, then their nearest neighbours and some sequences at random.
Recorded binding signal for the following sequences
quantity kind: binding signal

>  <input sequence>
GATGATTGTTCTCCCAGCTGATGAATTGTTTGTCTCGAGTAAACAAATTTTCCTAATCTTTCTGTTCAAGCGCCATCTAC

>  <assayed target>
MBP-FoxP3dN (Mus musculus, UniProt Q99JB6 188-423)

>  <meas value>
7.63 RPM ratio (pull-down/input)

$$$$
>  <input sequence>
GATGATTGTTCTCCCAGCTGATGAATTGATTGTCTCGAGTAAACAAATTTTCCTAATCTTTCTGTTCAAGCGCCATCTAC

>  <assayed target>
MBP-FoxP3dN (Mus musculus, UniProt Q99JB6 188-423)

>  <meas value>
2.86 RPM ratio (pull-down/input)

$$$$
>  <input sequence>
GATGATTGTTCTCCCAGCTGATGAATTTTTTTTCTCGAGTAAACAAATTTTCCTAATCTTTCTGTTCAAGCGCCATCTAC

>  <assayed target>
MBP-FoxP3dN (Mus musculus, UniProt Q99JB6 188-423)

>  <meas value>
0.267 RPM ratio (pull-down/input)

$$$$
>  <input sequence>
GATGATTGTTCTCCCAGCTGATGAATTGTCTTACTCGAGTAAACAAATTTTCCTAATCTTTCTGTTCAAGCGCCATCTAC

>  <assayed target>
MBP-FoxP3dN (Mus musculus, UniProt Q99JB6 188-423)

>  <meas value>
0.469 RPM ratio (pull-down/input)

$$$$
>  <input sequence>
GATGATTGTTCTCCCAGCTGATGAATTGTCCTCCTCGAGTAAACAAATTTTCCTAATCTTTCTGTTCAAGCGCCATCTAC

>  <assayed target>
MBP-FoxP3dN (Mus musculus, UniProt Q99JB6 188-423)

>  <meas value>
0.37 RPM ratio (pull-down/input)

$$$$
>  <input sequence>
GATGATTGTTCTCCCAGCTGATGAATTTGTCTACTCGAGTAAACAAATTTTCCTAATCTTTCTGTTCAAGCGCCATCTAC

>  <assayed target>
MBP-FoxP3dN (Mus musculus, UniProt Q99JB6 188-423)

>  <meas value>
5.77 RPM ratio (pull-down/input)

$$$$
>  <input sequence>
GATGATTGTTCTCCCAGCTGATGAATTCTGGCCATCGAGTAAACAAATTTTCCTAATCTTTCTGTTCAAGCGCCATCTAC

>  <assayed target>
MBP-FoxP3dN (Mus musculus, UniProt Q99JB6 188-423)

>  <meas value>
1.12 RPM ratio (pull-down/input)

$$$$
